FYI, the data here is from ChEMBL document CHEMBL3991601.

measurement.target: Ferrochelatase, mitochondrial (Homo sapiens); note: in the data inactive means no Kd found up to 30 µM
Sequence (P22830 whole entry): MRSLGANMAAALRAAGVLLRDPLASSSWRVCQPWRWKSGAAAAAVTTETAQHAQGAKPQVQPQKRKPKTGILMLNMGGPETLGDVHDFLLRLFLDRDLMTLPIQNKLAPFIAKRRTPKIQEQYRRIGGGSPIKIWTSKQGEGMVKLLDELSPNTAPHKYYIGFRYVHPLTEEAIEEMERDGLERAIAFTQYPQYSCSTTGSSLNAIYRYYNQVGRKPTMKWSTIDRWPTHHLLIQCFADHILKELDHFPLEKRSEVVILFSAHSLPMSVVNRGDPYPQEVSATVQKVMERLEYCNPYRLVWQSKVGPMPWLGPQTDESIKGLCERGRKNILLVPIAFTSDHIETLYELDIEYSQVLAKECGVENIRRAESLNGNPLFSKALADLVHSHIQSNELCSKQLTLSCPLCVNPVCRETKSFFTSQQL
Active and inactive are the calls of the source.
Parameter call: string, one of 1 (active), -1 (inactive)

For `CCN1CCN(Cc2ccc(Nc3ncc(F)c(-c4cc(F)c5nc(C)n(C(C)C)c5c4)n3)nc2)CC1` , which call appears in the assay record?
-1

Hey, what did the test say about `COc1cc2ncnc(Nc3ccc(O)cc3)c2cc1OC` ?
-1

Returns: the outcome recorded for `CC[C@@](C)(Nc1ccnc(-c2c[nH]c3ncccc23)n1)C(=O)NCC(F)(F)F` in this assay.
-1

How was `COc1cc(F)c(F)c(Nc2ccc(I)cc2F)c1NS(=O)(=O)C1(C[C@H](O)CO)CC1` classified in this test?
-1

---
How was `Cc1c(NC(=O)OC[C@@H]2COCCN2)cn2ncnc(Nc3ccc4c(cnn4Cc4cccc(F)c4)c3)c12` classified in this test?
-1
